Tested on: Escherichia coli recovered from uterine secretion from Holstein dairy cows (n = 80 isolates)
TEST SUMMARY: Antimicrobial susceptibility assay, MIC by broth microdilution (CLSI)
Format: cell-based
TEST CONDITIONS: Escherichia coli, MIC that inhibits at least 90% of isolates, 18 hours at 37° C.
MIC90 vs 30 mg/L: less than gives y; not less than gives n.

Enquiry: Threshold test, MIC90 < 30 mg/L: "CC1(C)S[C@@H]2[C@H](NC(=O)[C@H](N)c3ccccc3)C(=O)N2[C@H]1C(=O)O"
Return: n

Enquiry: Threshold test, MIC90 < 30 mg/L: "CO/N=C(\C(=O)N[C@@H]1C(=O)N2C(C(=O)O)=C(CSC(=O)c3ccco3)CS[C@H]12)c1csc(N)n1"
Return: y

Enquiry: Threshold test, MIC90 < 30 mg/L: "[H]/N=C(/N)N[C@H]1[C@H](O)[C@@H](O)[C@H](O[C@@H]2O[C@@H](C)[C@](O)(C=O)[C@H]2O[C@@H]2O[C@@H](CO)[C@H](O)[C@@H](O)[C@@H]2NC)[C@@H](N/C(N)=N\[H])[C@@H]1O"
Return: y

Enquiry: Threshold test, MIC90 < 30 mg/L: "O=C(N[C@H](CO)[C@H](O)c1ccc([N+](=O)[O-])cc1)C(Cl)Cl"
Return: n

Enquiry: Threshold test, MIC90 < 30 mg/L: "CN(C)[C@@H]1C(O)=C(C(N)=O)C(=O)[C@@]2(O)C(O)=C3C(=O)c4c(O)cccc4[C@@](C)(O)[C@H]3C[C@@H]12"
Return: y

Enquiry: Threshold test, MIC90 < 30 mg/L: "CN[C@@H]1[C@H](O)[C@H](NC)[C@H]2O[C@@]3(O)C(=O)C[C@@H](C)O[C@H]3O[C@@H]2[C@H]1O"
Return: n

Enquiry: Threshold test, MIC90 < 30 mg/L: "CS(=O)(=O)c1ccc([C@@H](O)[C@@H](CF)NC(=O)C(Cl)Cl)cc1"
Return: y
